molecular target: CYP3A4 (Homo sapiens); construct: studied in liver microsomes of CD-1 mouse, Sprague Dawley rat, Beagle dog, cynomolgus monkey, and human; from tissue; host or cells: liver microsomes; assay: CYP450 enzyme inhibition in liver microsomes (cocktail probe incubation); format: in vitro ADME; details: species not given, 0.05-50 μM tested
Sequence (P08684 whole entry): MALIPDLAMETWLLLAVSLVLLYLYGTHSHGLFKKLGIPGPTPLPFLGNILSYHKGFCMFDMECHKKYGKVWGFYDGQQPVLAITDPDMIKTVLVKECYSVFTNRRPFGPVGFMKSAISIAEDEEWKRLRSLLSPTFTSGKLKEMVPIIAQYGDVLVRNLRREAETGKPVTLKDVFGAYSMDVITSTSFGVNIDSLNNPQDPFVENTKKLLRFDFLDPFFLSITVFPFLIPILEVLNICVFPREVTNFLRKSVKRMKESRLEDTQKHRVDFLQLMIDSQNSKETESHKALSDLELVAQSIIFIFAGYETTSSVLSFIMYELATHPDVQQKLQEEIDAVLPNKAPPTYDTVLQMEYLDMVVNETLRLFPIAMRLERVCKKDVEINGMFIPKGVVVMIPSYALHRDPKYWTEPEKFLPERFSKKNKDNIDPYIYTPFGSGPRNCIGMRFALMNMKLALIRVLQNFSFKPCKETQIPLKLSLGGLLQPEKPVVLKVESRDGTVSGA
pIC50: −log10 of the molar value.
Metric: pIC50

>>> number("CC1(C)C(=O)C(C#N)=C[C@]2(C)C3=CC(=O)[C@@H]4[C@@H]5C[C@@](C)(c6nnc(C7CC7)o6)CC[C@]5(C)CC[C@@]4(C)[C@]3(C)CC[C@@H]12")
5.82
>>> number("Cc1noc([C@@]2(C)CC[C@]3(C)CC[C@]4(C)[C@H](C(=O)C=C5[C@@]6(C)C=C(C#N)C(=O)C(C)(C)[C@@H]6CC[C@]54C)[C@@H]3C2)n1")
5.80
>>> number("CC1(C)C(=O)C(C#N)=C[C@]2(C)C3=CC(=O)[C@@H]4[C@@H]5C[C@@](C)(N6CCOC6=O)CC[C@]5(C)CC[C@@]4(C)[C@]3(C)CC[C@@H]12")
5.72

---

target: CYP2D6 (Homo sapiens); construct: studied in liver microsomes of CD-1 mouse, Sprague Dawley rat, Beagle dog, cynomolgus monkey, and human; from tissue; host or cells: liver microsomes; assay: CYP450 enzyme inhibition in liver microsomes (cocktail probe incubation); format: in vitro ADME; details: species not given, 0.05-50 μM tested
Sequence (P10635 whole entry): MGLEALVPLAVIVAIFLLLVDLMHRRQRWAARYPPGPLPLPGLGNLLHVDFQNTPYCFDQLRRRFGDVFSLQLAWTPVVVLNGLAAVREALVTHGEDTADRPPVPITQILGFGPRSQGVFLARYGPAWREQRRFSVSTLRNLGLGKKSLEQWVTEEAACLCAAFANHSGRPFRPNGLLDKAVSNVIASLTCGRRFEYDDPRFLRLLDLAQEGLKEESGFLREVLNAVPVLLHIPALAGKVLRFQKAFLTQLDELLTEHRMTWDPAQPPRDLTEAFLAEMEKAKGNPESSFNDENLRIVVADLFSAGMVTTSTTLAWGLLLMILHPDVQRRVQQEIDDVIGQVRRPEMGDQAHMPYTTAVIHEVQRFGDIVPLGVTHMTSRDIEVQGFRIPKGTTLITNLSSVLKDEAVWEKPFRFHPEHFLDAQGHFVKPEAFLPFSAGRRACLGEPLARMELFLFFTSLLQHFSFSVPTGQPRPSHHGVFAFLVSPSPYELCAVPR
pIC50: −log10 of the molar value.
pIC50 by entry:
Metric: pIC50

>>> number("CC1(C)C(=O)C(C#N)=C[C@]2(C)C3=CC(=O)[C@@H]4[C@@H]5C[C@@](C)(c6ncco6)CC[C@]5(C)CC[C@@]4(C)[C@]3(C)CC[C@@H]12 [Example 6]")
5.16
>>> number("C[C@H](O)c1nnc([C@@]2(C)CC[C@]3(C)CC[C@]4(C)[C@H](C(=O)C=C5[C@@]6(C)C=C(C#N)C(=O)C(C)(C)[C@@H]6CC[C@]54C)[C@@H]3C2)o1 [Example 23]")
4.80
>>> number("Cc1cnc([C@@]2(C)CC[C@]3(C)CC[C@]4(C)[C@H](C(=O)C=C5[C@@]6(C)C=C(C#N)C(=O)C(C)(C)[C@@H]6CC[C@]54C)[C@@H]3C2)o1 [Example 7]")
5.00

---

biological target: CYP1A2 (Homo sapiens); construct: studied in liver microsomes of CD-1 mouse, Sprague Dawley rat, Beagle dog, cynomolgus monkey, and human; from tissue; host or cells: liver microsomes; assay: CYP450 enzyme inhibition in liver microsomes (cocktail probe incubation); assay type: in vitro ADME; details: species not given, 0.05-50 μM tested
Sequence (P05177 whole entry): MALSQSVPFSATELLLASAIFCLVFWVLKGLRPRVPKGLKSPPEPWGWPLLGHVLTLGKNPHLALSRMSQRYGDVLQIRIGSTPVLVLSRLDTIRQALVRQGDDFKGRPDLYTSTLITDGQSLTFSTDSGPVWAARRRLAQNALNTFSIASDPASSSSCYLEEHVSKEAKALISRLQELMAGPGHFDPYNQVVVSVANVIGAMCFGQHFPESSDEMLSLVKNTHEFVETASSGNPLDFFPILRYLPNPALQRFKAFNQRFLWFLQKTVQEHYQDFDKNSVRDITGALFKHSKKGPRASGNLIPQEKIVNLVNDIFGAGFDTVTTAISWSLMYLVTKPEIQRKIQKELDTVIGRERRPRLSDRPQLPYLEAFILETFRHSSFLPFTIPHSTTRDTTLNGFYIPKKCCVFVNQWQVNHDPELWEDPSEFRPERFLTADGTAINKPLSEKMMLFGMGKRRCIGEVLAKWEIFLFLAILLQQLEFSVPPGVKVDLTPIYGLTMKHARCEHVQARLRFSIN
Some compounds, each annotated with its measured IC50.
Metric: IC50

>>> result("C[C@H](O)c1nnc([C@@]2(C)CC[C@]3(C)CC[C@]4(C)[C@H](C(=O)C=C5[C@@]6(C)C=C(C#N)C(=O)C(C)(C)[C@@H]6CC[C@]54C)[C@@H]3C2)o1")
"> 50 µM"
>>> result("CC1(C)C(=O)C(C#N)=C[C@]2(C)C3=CC(=O)[C@@H]4[C@@H]5C[C@@](C)(N6CCCC6=O)CC[C@]5(C)CC[C@@]4(C)[C@]3(C)CC[C@@H]12")
"> 50 µM"
>>> result("Cc1nnc([C@@]2(C)CC[C@]3(C)CC[C@]4(C)[C@H](C(=O)C=C5[C@@]6(C)C=C(C#N)C(=O)C(C)(C)[C@@H]6CC[C@]54C)[C@@H]3C2)o1")
"> 50 µM"

---

assay: Pharmacokinetic studies in Sprague Dawley rats (oral gavage and IV); type: in vivo; details: rat, IV (1 mg/kg), male SD rats, plasma
Classification field: MET = half-life at or over 100 min; NOT MET = half-life under 100 min.

>>> assigned_category("Cc1noc([C@@]2(C)CC[C@]3(C)CC[C@]4(C)[C@H](C(=O)C=C5[C@@]6(C)C=C(C#N)C(=O)C(C)(C)[C@@H]6CC[C@]54C)[C@@H]3C2)n1")
"MET"
>>> assigned_category("CC1(C)C(=O)C(C#N)=C[C@]2(C)C3=CC(=O)[C@@H]4[C@@H]5C[C@@](C)(c6nnc(C(=O)NC7CC7)o6)CC[C@]5(C)CC[C@@]4(C)[C@]3(C)CC[C@@H]12")
"MET"
>>> assigned_category("CC1(C)C(=O)C(C#N)=C[C@]2(C)C3=CC(=O)[C@@H]4[C@@H]5C[C@@](C)(C#N)CC[C@]5(C)CC[C@@]4(C)[C@]3(C)CC[C@@H]12")
"NOT MET"
>>> assigned_category("CC1(C)C(=O)C(C#N)=C[C@]2(C)C3=CC(=O)[C@@H]4[C@@H]5C[C@@](C)(N6CCOC6=O)CC[C@]5(C)CC[C@@]4(C)[C@]3(C)CC[C@@H]12")
"MET"
>>> assigned_category("COC(=O)[C@]12CCC(C)(C)C[C@H]1[C@H]1C(=O)C=C3[C@@]4(C)C=C(C#N)C(=O)C(C)(C)[C@@H]4CC[C@@]3(C)[C@]1(C)CC2 [Control, reference compound]")
"MET"

---

assay: Pharmacokinetic studies in Sprague Dawley rats (oral gavage and IV); assay type: in vivo; conditions: rat, IV (1 mg/kg), male SD rats, plasma
Metric: clearance (mL/min/kg)

>>> number("Cc1nnc([C@@]2(C)CC[C@]3(C)CC[C@]4(C)[C@H](C(=O)C=C5[C@@]6(C)C=C(C#N)C(=O)C(C)(C)[C@@H]6CC[C@]54C)[C@@H]3C2)o1")
63.8
>>> number("CC1(C)C(=O)C(C#N)=C[C@]2(C)C3=CC(=O)[C@@H]4[C@@H]5C[C@@](C)(N6CC(O)C6)CC[C@]5(C)CC[C@@]4(C)[C@]3(C)CC[C@@H]12")
56.3
>>> number("CC1(C)C(=O)C(C#N)=C[C@]2(C)C3=CC(=O)[C@@H]4[C@@H]5C[C@@](C)(C#N)CC[C@]5(C)CC[C@@]4(C)[C@]3(C)CC[C@@H]12")
53
>>> number("CC1(C)C(=O)C(C#N)=C[C@]2(C)C3=CC(=O)[C@@H]4[C@@H]5C[C@@](C)(N6CCCC6=O)CC[C@]5(C)CC[C@@]4(C)[C@]3(C)CC[C@@H]12")
85.7
>>> number("CC1(C)C(=O)C(C#N)=C[C@]2(C)C3=CC(=O)[C@@H]4[C@@H]5C[C@@](C)(c6nnc(C(=O)NC7CC7)o6)CC[C@]5(C)CC[C@@]4(C)[C@]3(C)CC[C@@H]12")
32.5
>>> number("CC(=NC#N)NC[C@]12CCC(C)(C)C[C@H]1[C@H]1C(=O)C=C3[C@@]4(C)C=C(C#N)C(=O)C(C)(C)[C@@H]4CC[C@@]3(C)[C@]1(C)CC2")
50.9
>>> number("CC1(C)C(=O)C(C#N)=C[C@]2(C)C3=CC(=O)[C@@H]4[C@@H]5C[C@@](C)(c6nnc(C(N)=O)o6)CC[C@]5(C)CC[C@@]4(C)[C@]3(C)CC[C@@H]12")
63.3

---

assay: Metabolic stability in human liver microsomes; assay type: in vitro ADME
A collection of compounds and their measured CLint scaled at 1 μM
Metric: CLint scaled at 1 μM (mL/min/kg)

>>> number("CC1(C)C(=O)C(C#N)=C[C@]2(C)C3=CC(=O)[C@@H]4[C@@H]5C[C@@](C)(c6nnc(C(N)=O)o6)CC[C@]5(C)CC[C@@]4(C)[C@]3(C)CC[C@@H]12")
96.2
>>> number("Cc1nnc([C@@]2(C)CC[C@]3(C)CC[C@]4(C)[C@H](C(=O)C=C5[C@@]6(C)C=C(C#N)C(=O)C(C)(C)[C@@H]6CC[C@]54C)[C@@H]3C2)o1")
168
>>> number("CC1(C)C(=O)C(C#N)=C[C@]2(C)C3=CC(=O)[C@@H]4[C@@H]5C[C@@](C)(Cc6nnco6)CC[C@]5(C)CC[C@@]4(C)[C@]3(C)CC[C@@H]12")
87.9
>>> number("CC1(C)C(=O)C(C#N)=C[C@]2(C)C3=CC(=O)[C@@H]4[C@@H]5C[C@@](C)(c6nnco6)CC[C@]5(C)CC[C@@]4(C)[C@]3(C)CC[C@@H]12")
94
>>> number("COC(=O)[C@]12CCC(C)(C)C[C@H]1[C@H]1C(=O)C=C3[C@@]4(C)C=C(C#N)C(=O)C(C)(C)[C@@H]4CC[C@@]3(C)[C@]1(C)CC2 [Control, reference compound]")
95.4
>>> number("CC(=NC#N)NC[C@]12CCC(C)(C)C[C@H]1[C@H]1C(=O)C=C3[C@@]4(C)C=C(C#N)C(=O)C(C)(C)[C@@H]4CC[C@@]3(C)[C@]1(C)CC2")
34.2

---

Target: CYP2C9 (Homo sapiens)
Construct: studied in liver microsomes of CD-1 mouse, Sprague Dawley rat, Beagle dog, cynomolgus monkey, and human; from tissue; host or cells: liver microsomes
Sequence (P11712 whole entry): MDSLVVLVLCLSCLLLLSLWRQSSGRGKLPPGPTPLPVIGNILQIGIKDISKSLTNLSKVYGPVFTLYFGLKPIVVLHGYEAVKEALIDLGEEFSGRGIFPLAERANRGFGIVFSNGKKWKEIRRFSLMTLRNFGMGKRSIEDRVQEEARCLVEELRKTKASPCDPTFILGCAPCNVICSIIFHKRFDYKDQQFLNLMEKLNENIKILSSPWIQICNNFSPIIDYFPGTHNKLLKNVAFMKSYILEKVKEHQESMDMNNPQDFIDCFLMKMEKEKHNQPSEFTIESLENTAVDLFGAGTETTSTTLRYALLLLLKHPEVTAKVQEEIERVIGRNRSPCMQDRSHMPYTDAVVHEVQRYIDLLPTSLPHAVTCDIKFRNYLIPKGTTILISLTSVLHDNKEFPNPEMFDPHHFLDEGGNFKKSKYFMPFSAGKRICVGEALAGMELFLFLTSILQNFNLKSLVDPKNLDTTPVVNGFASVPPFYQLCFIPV
Test: CYP450 enzyme inhibition in liver microsomes (cocktail probe incubation)
Assay type: in vitro ADME
Conditions: species not given, 0.05-50 μM tested
Method: The inhibition potential of test compounds towards major drug metabolizing CYP450 enzymes was studied in liver microsomes of CD-1 mouse, Sprague Dawley rat, Beagle dog, cynomolgus monkey, and human. The inhibition of CYP1A2, CYP2C9, CYP2C19, CYP2D6, and CYP3A4 was assessed using CYP450 specific probe reactions in a cocktail incubation. Seven concentrations of test compounds (0.05, 0.15, 0.5, 1.5, 5, 15, and 50 μM) were evaluated. […]
pIC50: −log10 of the molar value.
Metric: pIC50

>>> number("CC1(C)C(=O)C(C#N)=C[C@]2(C)C3=CC(=O)[C@@H]4[C@@H]5C[C@@](C)(N6CCCC6=O)CC[C@]5(C)CC[C@@]4(C)[C@]3(C)CC[C@@H]12 [Example 12]")
5.57
>>> number("COC(=O)[C@]12CCC(C)(C)C[C@H]1[C@H]1C(=O)C=C3[C@@]4(C)C=C(C#N)C(=O)C(C)(C)[C@@H]4CC[C@@]3(C)[C@]1(C)CC2 [Control, reference compound]")
5.77
>>> number("CC1(C)C(=O)C(C#N)=C[C@]2(C)C3=CC(=O)[C@@H]4[C@@H]5C[C@@](C)(c6nnc(C(N)=O)o6)CC[C@]5(C)CC[C@@]4(C)[C@]3(C)CC[C@@H]12 [Example 25]")
5.16
>>> number("CC1(C)C(=O)C(C#N)=C[C@]2(C)C3=CC(=O)[C@@H]4[C@@H]5C[C@@](C)(N6CCOCC6)CC[C@]5(C)CC[C@@]4(C)[C@]3(C)CC[C@@H]12 [Example 11]")
5.66
>>> number("C[C@H](O)c1nnc([C@@]2(C)CC[C@]3(C)CC[C@]4(C)[C@H](C(=O)C=C5[C@@]6(C)C=C(C#N)C(=O)C(C)(C)[C@@H]6CC[C@]54C)[C@@H]3C2)o1 [Example 23]")
5.82
>>> number("Cc1nnc([C@@]2(C)CC[C@]3(C)CC[C@]4(C)[C@H](C(=O)C=C5[C@@]6(C)C=C(C#N)C(=O)C(C)(C)[C@@H]6CC[C@]54C)[C@@H]3C2)o1 [Example 1]")
5.57
>>> number("CC1(C)C(=O)C(C#N)=C[C@]2(C)C3=CC(=O)[C@@H]4[C@@H]5C[C@@](C)(c6nnc(C7CC7)o6)CC[C@]5(C)CC[C@@]4(C)[C@]3(C)CC[C@@H]12 [Example 16]")
5.70
>>> number("CC1(C)C(=O)C(C#N)=C[C@]2(C)C3=CC(=O)[C@@H]4[C@@H]5C[C@@](C)(N6C(=O)CCC6=O)CC[C@]5(C)CC[C@@]4(C)[C@]3(C)CC[C@@H]12 [Example 18]")
5.33
>>> number("CC1(C)C(=O)C(C#N)=C[C@]2(C)C3=CC(=O)[C@@H]4[C@@H]5C[C@@](C)(c6ncco6)CC[C@]5(C)CC[C@@]4(C)[C@]3(C)CC[C@@H]12 [Example 6]")
5.68
>>> number("CC1(C)C(=O)C(C#N)=C[C@]2(C)C3=CC(=O)[C@@H]4[C@@H]5C[C@@](C)(N6CCOC6=O)CC[C@]5(C)CC[C@@]4(C)[C@]3(C)CC[C@@H]12 [Example 13]")
5.72
>>> number("CC1(C)C(=O)C(C#N)=C[C@]2(C)C3=CC(=O)[C@@H]4[C@@H]5C[C@@](C)(C#N)CC[C@]5(C)CC[C@@]4(C)[C@]3(C)CC[C@@H]12 [Example 2]")
5.66
>>> number("CNC(=NC#N)NC[C@]12CCC(C)(C)C[C@H]1[C@H]1C(=O)C=C3[C@@]4(C)C=C(C#N)C(=O)C(C)(C)[C@@H]4CC[C@@]3(C)[C@]1(C)CC2 [Example 3]")
5.47
>>> number("Cc1noc([C@@]2(C)CC[C@]3(C)CC[C@]4(C)[C@H](C(=O)C=C5[C@@]6(C)C=C(C#N)C(=O)C(C)(C)[C@@H]6CC[C@]54C)[C@@H]3C2)n1 [Example 15]")
5.59
>>> number("Cc1cnc([C@@]2(C)CC[C@]3(C)CC[C@]4(C)[C@H](C(=O)C=C5[C@@]6(C)C=C(C#N)C(=O)C(C)(C)[C@@H]6CC[C@]54C)[C@@H]3C2)o1 [Example 7]")
5.70
>>> number("CC1(C)C(=O)C(C#N)=C[C@]2(C)C3=CC(=O)[C@@H]4[C@@H]5C[C@@](C)(c6nnc(C(F)(F)F)o6)CC[C@]5(C)CC[C@@]4(C)[C@]3(C)CC[C@@H]12 [Example 10]")
5.74
>>> number("CC1(C)C(=O)C(C#N)=C[C@]2(C)C3=CC(=O)[C@@H]4[C@@H]5C[C@@](C)(Cc6nnco6)CC[C@]5(C)CC[C@@]4(C)[C@]3(C)CC[C@@H]12 [Example 14]")
5.52
>>> number("CC1(C)C(=O)C(C#N)=C[C@]2(C)C3=CC(=O)[C@@H]4[C@@H]5C[C@@](C)(n6cnnc6)CC[C@]5(C)CC[C@@]4(C)[C@]3(C)CC[C@@H]12 [Example 17]")
5.66
>>> number("CC1(C)C(=O)C(C#N)=C[C@]2(C)C3=CC(=O)[C@@H]4[C@@H]5C[C@@](C)(c6nnco6)CC[C@]5(C)CC[C@@]4(C)[C@]3(C)CC[C@@H]12 [Example 9]")
5.51
>>> number("CC1(C)C(=O)C(C#N)=C[C@]2(C)C3=CC(=O)[C@@H]4[C@@H]5C[C@@](C)(c6nnc(C(=O)NC7CC7)o6)CC[C@]5(C)CC[C@@]4(C)[C@]3(C)CC[C@@H]12 [Example 19]")
5.92
>>> number("CC1(C)C(=O)C(C#N)=C[C@]2(C)C3=CC(=O)[C@@H]4[C@@H]5C[C@@](C)(N6CCC(O)C6)CC[C@]5(C)CC[C@@]4(C)[C@]3(C)CC[C@@H]12 (some centres unmarked) [Example 20]")
5.07
